The reported numbers originate from ChEMBL document CHEMBL1201862.

tested on: NCI-H460; experiment: NCI tumour cell line growth inhibition, 48 h
The source made the active and inactive calls. Rule as the data show it: active = GI50 up to about 1.1 µM and inactive = higher.
measuredEndpoint: GI50

Data request: Record Cc1c2nc3ccccc3sc-2cc(=O)c1C : what is its GI50 with NCI-H460?
Data returned: 12.4 µM (inactive)

Data request: What do you get for NC(=O)C12C3C4C1C1C2C3C41C(N)=O (stereo not drawn) ?
Data returned: > 100 µM (inactive)

Data request: What do you get for Cc1c(N2C(=O)/C(=C/c3ccc(N(CCC#N)CCC#N)cc3)N=C2c2ccccc2)c(=O)n(-c2ccccc2)n1C ?
Data returned: > 100 µM (inactive)

Data request: What do you get for C=C1[C@H](OCC(C)C)[C@@H](OCC(C)C)[C@@H](O)C(C)(C)/C=C/[C@H](C)C(=O)[C@@]2(O)C[C@H](C)[C@H](O)[C@@H]2[C@H]1OCC(C)C ?
Data returned: 0.555 µM (active)

Data request: What do you get for O=[As](O)(O)c1ccc(/N=N/c2ccc([As](=O)(O)O)cc2)cc1 ?
Data returned: > 100 µM (inactive)

Data request: What do you get for CCc1cc2c(oc3cc(C)ccc32)c(=O)n1C ?
Data returned: > 10 µM (inactive)

Data request: What do you get for C/C(=N\NC(=S)NCCCCNC(=S)N/N=C(\C)c1ccccn1)c1ccccc1 ?
Data returned: 0.481 µM (active)

Data request: What do you get for O=C(Nc1ccc([N+](=O)[O-])cc1)C(=O)C(C(=O)c1ccccc1F)C1OC(=O)c2ccccc21 (stereo not drawn) ?
Data returned: 34.9 µM (inactive)

Data request: What do you get for C/C=C(/C)C(=O)O[C@H]1[C@H]2[C@@H]([C@@H](OC(C)=O)[C@H](C)C(=O)[C@@]34C[C@@H](C)C(=O)[C@]3(/C=C(\C)[C@H]1OC(C)=O)O4)C2(C)C ?
Data returned: 1.31 µM (inactive)

Data request: What do you get for c1ccc2c(c1)c1c(n2CCOCCN2CCOCC2)CCCC1 ?
Data returned: 27.5 µM (inactive)

Data request: What do you get for CC(=O)O[C@H]1C(=O)N(c2cc3c4ccccc4ccc3c3ccccc23)[C@@H]1c1ccccc1 ?
Data returned: 4.31 µM (inactive)

Data request: What do you get for COc1cccc(OCC(=N/NC(=O)c2ccncc2)/N=C/c2cccnc2)c1 ?
Data returned: > 100 µM (inactive)

Data request: What do you get for O=P1(Cc2ccccc2)c2ccccc2-c2ccccc21 ?
Data returned: 4.04 µM (inactive)

----------
test system: SK-MEL-28; test: NCI tumour cell line growth inhibition, 48 h
The source made the active and inactive calls. Cut-off read from the data, not from the text of the source: active = GI50 up to about 1.1 µM and inactive = higher.
Assign a class; possible classes are active, inactive

Data request: I'd appreciate the recorded outcome for O=C1c2ccc(O)c(O)c2C(=O)c2c(O)ccc(O)c21 from this test.
Data returned: inactive

Data request: What do you get for COc1cccc(-c2cc(O)c3cc(N4CCN(C)CC4)ccc3n2)c1 ?
Data returned: inactive

Data request: What do you get for OCc1ccccc1O[C@H]1O[C@H](CO)[C@@H](O)[C@H](O)[C@H]1O ?
Data returned: inactive

Data request: What do you get for CCCC1C2=C(C(=O)OC2=O)C2C(CC)CC3=C(C(=O)OC3=O)C12 (stereo not drawn) ?
Data returned: inactive

Data request: What do you get for C=C(C(=C)N1N=NC2C3CCC(C3)C21)N1N=NC2C3CCC(C3)C21 (stereo not drawn) ?
Data returned: inactive

Data request: What do you get for CCOC(=O)COc1cccc2c1C(=O)CCO2 ?
Data returned: inactive

Data request: What do you get for COC(=O)C1=C(O)CCCC(C2CCCCC(=O)C2C(=O)OC)=C1 (stereo not drawn) ?
Data returned: inactive

Data request: What do you get for Cc1nc2ccc(F)cc2c(Cl)c1CCCl ?
Data returned: inactive

Data request: What do you get for CCCC(=O)Nc1cc(/C=C/C(=O)N2CC(CCl)c3ccc(N)cc32)n(C)c1 (stereo not drawn) ?
Data returned: active

Data request: What do you get for O=C1CCCC/C1=C1/SC(=N/c2ccccc2)/C(=N\c2ccccc2)N1c1ccccc1 ?
Data returned: inactive

Data request: What do you get for O=C(CC(=O)c1cccc([N+](=O)[O-])c1)C(=O)Nc1ccccc1 ?
Data returned: inactive

Data request: What do you get for CSC12c3cc(C)n(-c4ccccc4)c3CC(C)(C)CN1C(=O)C2Oc1ccccc1 (stereo not drawn) ?
Data returned: inactive

Data request: What do you get for Cc1cccc2c(=O)c3c(O)cc(O)cc3n(C)c12 ?
Data returned: inactive
